Molecular target: BTK (Homo sapiens, UniProt Q06187)
Sequence (Q06187 whole entry): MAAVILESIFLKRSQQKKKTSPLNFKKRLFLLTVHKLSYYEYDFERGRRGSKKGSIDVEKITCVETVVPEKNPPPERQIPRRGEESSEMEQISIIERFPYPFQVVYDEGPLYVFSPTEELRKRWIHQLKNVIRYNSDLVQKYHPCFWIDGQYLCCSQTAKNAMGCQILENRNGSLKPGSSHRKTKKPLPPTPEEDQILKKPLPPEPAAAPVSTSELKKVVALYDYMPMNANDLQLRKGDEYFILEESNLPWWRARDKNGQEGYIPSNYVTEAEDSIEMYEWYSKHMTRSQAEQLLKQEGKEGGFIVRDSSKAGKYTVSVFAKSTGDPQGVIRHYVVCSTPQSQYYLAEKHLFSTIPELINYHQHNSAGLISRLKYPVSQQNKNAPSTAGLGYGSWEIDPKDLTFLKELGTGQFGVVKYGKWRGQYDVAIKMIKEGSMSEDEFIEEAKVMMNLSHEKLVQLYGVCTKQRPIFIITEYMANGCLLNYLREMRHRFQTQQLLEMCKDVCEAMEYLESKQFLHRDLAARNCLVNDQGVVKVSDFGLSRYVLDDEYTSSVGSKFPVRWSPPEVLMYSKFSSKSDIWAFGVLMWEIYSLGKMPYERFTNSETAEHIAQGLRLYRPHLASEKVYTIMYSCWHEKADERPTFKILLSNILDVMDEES
measurementType: Kd (nM)
Field: numeric (nM). Do not append units.

Q. Can you look up Kd on BTK (Homo sapiens, UniProt Q06187) for C=CC(=O)Nc1cccc(Nc2nc(-c3cccc(-n4ncc5cc(C(C)(C)C)cc(F)c5c4=O)c3CO)cn(C)c2=O)c1 [CY-130526] ?
A. 0.86

----------
Target: JAK3 (Homo sapiens)
Sequence (P52333 814-1124 limits assumed): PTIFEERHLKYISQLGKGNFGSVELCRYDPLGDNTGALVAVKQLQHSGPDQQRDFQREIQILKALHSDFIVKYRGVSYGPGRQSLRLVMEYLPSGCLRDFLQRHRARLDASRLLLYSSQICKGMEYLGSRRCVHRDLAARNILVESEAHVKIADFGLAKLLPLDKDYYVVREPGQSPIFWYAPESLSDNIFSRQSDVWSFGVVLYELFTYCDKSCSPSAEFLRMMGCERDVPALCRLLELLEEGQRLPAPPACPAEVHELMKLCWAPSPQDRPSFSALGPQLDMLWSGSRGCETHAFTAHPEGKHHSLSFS
measurementType: Kd
Give me the value, and tack the unit on after it.

Q. Consider the compound C=CC(=O)Nc1cccc(Nc2nc(-c3cccc(-n4ncc5cc(C(C)(C)C)cc(F)c5c4=O)c3CO)cn(C)c2=O)c1 and give its measured Kd.
A. 14 µM
